Source: ChEMBL document CHEMBL1938353

Reported IC50 is given for each of the following compounds.
target: Sodium channel protein type 9 subunit alpha (Homo sapiens); assay: Antagonist activity at 20% inactivated human sodium channel Nav1.7 expressed in human HEK293 cells by patch-clamp electrophysiological assay; assay type: functional, cell-based
Sequence (Q15858 whole entry): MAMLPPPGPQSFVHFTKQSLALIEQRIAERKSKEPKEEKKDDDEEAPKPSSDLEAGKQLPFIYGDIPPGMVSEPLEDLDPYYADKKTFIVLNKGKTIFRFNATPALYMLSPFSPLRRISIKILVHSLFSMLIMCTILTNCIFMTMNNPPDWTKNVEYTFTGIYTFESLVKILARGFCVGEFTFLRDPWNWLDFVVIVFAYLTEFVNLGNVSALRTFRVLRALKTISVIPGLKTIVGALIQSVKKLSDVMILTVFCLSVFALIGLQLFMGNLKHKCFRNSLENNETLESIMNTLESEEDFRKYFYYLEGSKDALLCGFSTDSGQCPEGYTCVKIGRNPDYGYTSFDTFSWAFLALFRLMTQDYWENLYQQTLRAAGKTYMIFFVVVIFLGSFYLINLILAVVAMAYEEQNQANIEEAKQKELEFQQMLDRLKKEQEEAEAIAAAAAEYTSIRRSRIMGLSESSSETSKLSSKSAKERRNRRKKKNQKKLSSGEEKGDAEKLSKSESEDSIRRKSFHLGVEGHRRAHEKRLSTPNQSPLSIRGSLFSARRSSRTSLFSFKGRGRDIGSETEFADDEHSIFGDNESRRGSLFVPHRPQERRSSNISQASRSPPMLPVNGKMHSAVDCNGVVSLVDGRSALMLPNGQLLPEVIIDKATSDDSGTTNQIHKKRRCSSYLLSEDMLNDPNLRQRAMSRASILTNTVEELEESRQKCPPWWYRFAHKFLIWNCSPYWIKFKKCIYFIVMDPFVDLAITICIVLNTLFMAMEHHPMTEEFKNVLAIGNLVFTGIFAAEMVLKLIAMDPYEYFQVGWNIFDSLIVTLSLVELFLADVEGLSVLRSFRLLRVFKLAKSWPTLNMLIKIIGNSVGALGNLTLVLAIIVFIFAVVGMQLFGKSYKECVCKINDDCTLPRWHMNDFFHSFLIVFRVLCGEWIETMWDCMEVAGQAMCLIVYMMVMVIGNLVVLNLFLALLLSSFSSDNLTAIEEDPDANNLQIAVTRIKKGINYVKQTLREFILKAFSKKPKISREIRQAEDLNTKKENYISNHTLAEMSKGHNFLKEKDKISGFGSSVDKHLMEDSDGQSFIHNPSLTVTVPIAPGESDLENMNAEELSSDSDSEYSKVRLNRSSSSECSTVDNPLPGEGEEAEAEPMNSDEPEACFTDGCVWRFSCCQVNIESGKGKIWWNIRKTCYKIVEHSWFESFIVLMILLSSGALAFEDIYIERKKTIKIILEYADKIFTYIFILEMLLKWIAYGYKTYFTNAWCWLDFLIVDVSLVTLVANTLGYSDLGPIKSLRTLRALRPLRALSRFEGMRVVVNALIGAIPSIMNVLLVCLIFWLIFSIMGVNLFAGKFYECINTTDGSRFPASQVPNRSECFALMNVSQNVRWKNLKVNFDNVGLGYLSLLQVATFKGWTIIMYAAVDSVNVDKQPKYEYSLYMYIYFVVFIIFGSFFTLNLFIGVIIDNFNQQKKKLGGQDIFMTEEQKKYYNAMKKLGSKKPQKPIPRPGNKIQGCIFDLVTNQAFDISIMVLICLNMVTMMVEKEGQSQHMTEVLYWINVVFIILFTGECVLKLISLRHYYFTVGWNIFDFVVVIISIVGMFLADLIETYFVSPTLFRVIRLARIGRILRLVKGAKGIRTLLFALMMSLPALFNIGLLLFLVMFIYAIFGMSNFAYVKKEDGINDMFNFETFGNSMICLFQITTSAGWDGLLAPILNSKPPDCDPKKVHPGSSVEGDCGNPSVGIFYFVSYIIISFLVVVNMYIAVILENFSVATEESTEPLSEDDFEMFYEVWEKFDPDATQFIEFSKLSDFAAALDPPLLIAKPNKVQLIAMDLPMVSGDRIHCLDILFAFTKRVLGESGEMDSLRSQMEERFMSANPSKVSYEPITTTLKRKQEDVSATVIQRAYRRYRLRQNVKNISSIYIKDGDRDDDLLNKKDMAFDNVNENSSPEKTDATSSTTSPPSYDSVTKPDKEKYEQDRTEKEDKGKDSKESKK
Please reply with the bare figure in µM and do not write the unit itself.

Some entries whose results are on file:
>>> recorded_measurement("CC(C)(C)c1ccc(CSc2nc(NC(=O)C3CC3)cc(=O)[nH]2)cc1")
2.5
>>> recorded_measurement("Cn1c(SCc2ccc(C(C)(C)C)cc2)nc(N)cc1=O")
0.42
>>> recorded_measurement("CCCCCCCSc1nc(N)cc(=O)[nH]1")
0.94

If you can, please state the reported IC50 value of "CC(C)(C)OC(=O)Nc1cc(=O)[nH]c(SCc2ccc(C(C)(C)C)cc2)n1" .
7.8

----------
target: Sodium channel protein type 9 subunit alpha (Homo sapiens); experiment: Antagonist activity at 20% inactivated human sodium channel Nav1.7 expressed in human HEK293 cells by patch-clamp electrophysiological assay; type: functional, cell-based
Reported IC50 values are given for each entry in this list.

>>> recorded_measurement("CC(C)(C)c1ccc(CSc2nc(O)cc(=O)[nH]2)cc1")
"> 30 µM"
>>> recorded_measurement("CC(C)(C)c1ccc(CSc2nc(N)c(N)c(=O)[nH]2)cc1")
"> 30 µM"

The record that follows has no IC50 shown yet.
Any idea what its IC50 is? The compound is "CC(C)CSc1nc(N)cc(=O)[nH]1"
> 30 µM
